Assay: Rotorod test (general CNS depression potential)
Details: mouse, in vivo, ip
readout_label: ED50 at 10 min (mg/kg)
The answer is to be given in mg/kg; state only the numeric part.

Query string: Give the measured ED50 at 10 min of C[C@]12CC[C@@H](O)C[C@@H]1CC[C@@H]1[C@@H]2CC[C@]2(C)[C@@H](C(=O)CO)CC[C@@H]12 [3α,21-dihydroxy-5α-pregnan-20-one] .
Result string: 22.9

====

Target: GR complex
Test: [35S]TBPS binding assay (inhibition of [35S]TBPS binding, cerebral cortex P2 homogenate)
Set-up: species or system rat
Conditions: 2 nM [35S]TBPS, rat cerebral cortex P2 homogenate
Flag rule - IC50 less than 100 nM flags class 1; the remaining entries get class 0.

compound | target_of_assay | label_value
CC(=O)c1ccc(C#CC2(O)CCC3C(CCC4C3CCC3(C)C(C(C)=O)CCC43)C2)cc1 (stereo not drawn) [3β-(4'-Acetylphenyl)ethynyl-3α-hydroxy-5β-19-norpregnan-20-o] | GR complex | class 1
COc1ccc(C#CC2(O)CCC3(C)C(CCC4C3CCC3(C)C(C(C)=O)CCC43)C2)cc1 (centres unmarked) | GR complex | class 1
CC(=O)[C@H]1CC[C@H]2[C@@H]3CC[C@@H]4C[C@@](O)(C#Cc5cccs5)CC[C@]4(C)[C@H]3CC[C@]12C | GR complex | class 1
CC12CC(N3CCOCC3)C(O)CC1CCC1C2CCC2(C)C(C(=O)Cn3cncn3)CCC12 (centres unmarked) | GR complex | class 0

Query string: Please let me know if CC(=O)c1ccc(C#CC2(O)CCC3C(CCC4C3CCC3(C)C(C(C)=O)CCC43)C2)cc1 (centres unmarked) shows IC50 below 100 nM.
Result string: class 1

Query string: Try this compound next: CC(=O)[C@H]1CC[C@H]2[C@@H]3CC[C@@H]4C[C@@](O)(C#Cc5ccc(F)cc5F)CC[C@]4(C)[C@H]3CC[C@]12C
Result string: class 0

Query string: Try this compound next: CC(=O)c1cccc(C#C[C@@]2(O)CC[C@@]3(C)[C@H](CC[C@@H]4[C@@H]3CC[C@]3(C)[C@@H](C(C)=O)CC[C@@H]43)C2)c1
Result string: class 1

Query string: Try this compound next: C#C[C@@]1(O)CC[C@@]2(C)[C@H](CC[C@@H]3[C@@H]2CC[C@]2(C)[C@@H](C(=O)Cn4ccnc4)CC[C@@H]32)C1
Result string: class 1

Query string: Try this compound next: CC(=O)C1CCC2C3CCC4CC(O)(C#CCn5cncn5)CCC4(C)C3CCC12C (centres unmarked)
Result string: class 0
